- System: NCI-H1048 cells
- procedure_text: MTT proliferation assay, NCI-H1048;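 also: Dose-response in 96-well plates over 8 or 10 concentration points, with exposure spanning 3-4 cell doublings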
- Format: cell-based
- assay_conditions: 5 days compound exposure, 1:3 serial dilution starting at 10 μM
*1 amine or outer side, *2 acyl side, *3 side chain or, on linkers, in order; H or OH if unused. Where a SMILES comes first, the peptide text is derived from it. Bridges are numbered along the chain shown (N, C = ends). [ ]: non-standard residue; d: D form. The star is where a group is joined. NMehhhLys(Me) = CN([C@@H](CCCCCCCN(C)[*:3])C(=O)[*:2])[*:1]; X139 = Cc1[nH]ncc1-c1ccc(Cl)cc1C[C@@H](C(=O)[*:2])N(C)[*:1]; X2 = CN([C@@H](Cc1cc(Cl)ccc1-c1ccc2ncnn2c1)C(=O)[*:2])[*:1]; X22 = CN([C@@H](Cc1cc(Cl)ccc1-c1cnn(C)c1)C(=O)[*:2])[*:1]; cBuCO(3,3-F2-1-CF3) = O=C(C1(C(F)(F)F)CC(F)(F)C1)*; Pro(trans-4-F) = O=C(O)[C@@H]1C[C@@H](F)CN1; Pivaloyl(3,3,3-F3) = CC(C)(C(=O)*)C(F)(F)F; Gly(cPr) = N[C@H](C(=O)O)C1CC1
reported_endpoint: GI50 (nM)
# number only, unit nM dropped from output

Input line: Annotate the compound CC(C)C[C@@H]1NC(=O)[C@@H](N(C)C(=O)[C@@H](NC(=O)[C@@H]2C[C@@H](F)CN2C(=O)C(C)(C)C(F)(F)F)C2CC2)CCCCCCCN(C)C(=O)[C@H](Cc2cc(Cl)ccc2-c2cnn(C)c2)N(C)C1=O [Example 204] ({Pivaloyl(3,3,3-F3)}-[Pro(trans-4-F)][Gly(cPr)][NMehhhLys(Me)]L[X22]; lactam 3-C) with its measured GI50.
Output line: 10

Input line: Return value of GI50 for input Cc1[nH]ncc1-c1ccc(Cl)cc1C[C@H]1C(=O)N(C)CCCCCCC[C@H](N(C)C(=O)[C@@H](NC(=O)[C@@H]2C[C@@H](F)CN2C(=O)C2(C(F)(F)F)CC(F)(F)C2)C2CC2)C(=O)N[C@@H](CC(C)C)C(=O)N1C [Example 211] ({cBuCO(3,3-F2-1-CF3)}-[Pro(trans-4-F)][Gly(cPr)][NMehhhLys(Me)]L[X139]; lactam 3-C) , no commentary.
Output line: 20

Input line: Using the record for CC(C)C[C@@H]1NC(=O)[C@@H](N(C)C(=O)[C@@H](NC(=O)[C@@H]2C[C@@H](F)CN2C(=O)C2(C(F)(F)F)CC(F)(F)C2)C2CC2)CCCCCCCN(C)C(=O)[C@H](Cc2cc(Cl)ccc2-c2ccc3ncnn3c2)N(C)C1=O [Example 232] ({cBuCO(3,3-F2-1-CF3)}-[Pro(trans-4-F)][Gly(cPr)][NMehhhLys(Me)]L[X2]; lactam 3-C) , state its measured GI50.
Output line: 50
